# test: Mycobacterium tuberculosis growth inhibition, primary screen (AID 1259343)
# conditions_used: at 10 µM, hits give high values
The whole screen tested about 6,200 compounds, of which about 2,900 (47%) were called active. So high a share suggests a set chosen from earlier hits. The list shows a part of the results.
outcome_measure: inhibition (%)
Response body: numeric value in %, unit text excluded.

Reference set (3 entries):
compound	outcome_measure	assay_value
CN(Cc1csc(-c2ccccc2)n1)Cc1nc(Cc2cccc(F)c2)no1	inhibition	90.6
O=C(Nc1ccc(Oc2ccccc2)nc1)C1CCN(C(=O)c2cccs2)CC1	inhibition	77.1
O=C(Nc1nc(-c2ccc(Br)cc2)cs1)c1cc(Cl)ccc1[N+](=O)[O-]	inhibition	94.8

The recorded inhibition for CC(=O)O[C@H]1CC[C@@]2(C)C(=CC[C@@H]3[C@H]2CC[C@]2(C)C(c4cccnc4)=CC[C@@H]32)C1 is 27.2

The compound listed as Cn1c2c(c3cc(-c4cccc5c4CCNC5)ccc31)CCCC2=O shows inhibition equal to 10.9

inhibition reading for CCN=c1scc(-c2ccc(C)cc2)n1N=C(C)c1ccc(C)o1 : 42.6

---

# test: Mycobacterium tuberculosis growth inhibition, primary screen (AID 1259343)
# conditions_used: at 10 µM
The campaign covered roughly 6,200 compounds. About 2,900 (47%) were called active. No stated cut-off is given here; in the data, active means inhibition above about 50%; inactive means the rest. The set was probably picked from earlier hits. Some of the results follow.
Valid outcomes are listed here; reply with one: active, inactive

molecule	cat
CCOc1ccc(OCCOc2cccc(C(F)(F)F)c2)cc1	active
CCOP(=O)(Oc1ccccc1)c1c([N+](=O)[O-])cc(C(F)(F)F)cc1[N+](=O)[O-] (centres undefined)	active
c1ccc(-c2cn3c(n2)CCc2ccc4cccnc4c2-3)cc1	inactive
CCOc1ccc(OCCOCCOc2ccccc2)cc1	active
Clc1ccc(-c2csc3ncnc(Sc4nnnn4C4CC4)c23)cc1	inactive

Any idea what this test logged for O=C(NC12CC3CC(CC(C3)C1)C2)c1cncc(Br)c1 ?
active

Query: recorded result category for N#CCOc1ccc(CNc2ncc(Br)cn2)cc1 in this test
inactive

Query: recorded result category for CCCNC(=O)COc1c(Cl)cc(Cl)c2ccc(C)nc12 in this test
active

Hello, I am checking results. What call was entered for c1cnc2c(c1)ccc1cccnc12 ?
active

Short answer needed: outcome of this test for CCOc1ccccc1OCCOc1ccccc1 ?
inactive

Outcome? CC(C)CC(NC(=O)c1ccc(Cl)cc1Cl)C(=O)Nc1ncn[nH]1 (centres undefined)
inactive

Hey, what did the test say about CCOc1cccc(OCCOc2cccc(Br)c2)c1 ?
inactive

Write down the call the test reported for this molecule. Item: Cc1cc(OCC(=O)Nc2ncn[nH]2)c(C)cc1Br
active

---

# test: Mycobacterium tuberculosis growth inhibition, primary screen (AID 1259343)
# conditions_used: at 10 µM, hits give high values
Screen size: about 6,200 compounds; about 2,900 (47%) were called active. The set was probably picked from earlier hits. The list shows a part of the results.
Listed below: inhibition values for each entry.

compound	inhibition
Cc1cc(NC(=O)c2ccccc2)n(-c2nc(C)c(C)c(=O)[nH]2)n1	-21.2% (inactive)
CCOc1ccc(Nc2cncc(Cl)n2)cc1	72.5% (active)
CCOc1ccc(C(=O)Nc2cc(C)nn2-c2nc(C)c(CC)c(=O)[nH]2)cc1OCC	-21.9% (inactive)
Cc1ccc(C)c(OCCN(C)Cc2nc3ccccc3n2C)c1	83.1% (active)
Cc1cc(C)c2nc(N3CCNCC3)sc2c1	97.1% (active)
O=C(Nc1ccc(Cl)nc1)N1CCC(COCc2ccccc2)C1 (stereo not given)	95% (active)
CC(C)c1nnc(NS(=O)(=O)c2ccc(Cl)s2)s1	-36.5% (inactive)
Cc1cc(=O)[nH]c(-n2nc(C)cc2NC(=O)C(C)Oc2ccccc2)n1 (stereo not given)	99.8% (active)

Per the records, this compound ( O=S(=O)(Nc1cc(Cl)ccc1-n1cncn1)c1ccc(F)cc1 ) has inhibition equal to 66% (active)

For reference, reported inhibition for CCCc1cc(=O)[nH]c(-n2nc(C)cc2NC(=O)Cc2ccc(OCC)cc2)n1 stands at -19.4% (inactive)

Note to self: inhibition recorded for O=[N+]([O-])c1cc(S(=O)(=O)Nc2cc(Cl)ccc2-n2cncn2)ccc1Cl was 67.4% (active)

Data point: CCOc1ccc(C(=O)Nc2cc(C)nn2-c2nc(C)c(C)c(=O)[nH]2)cc1OCC ; inhibition = 98.7% (active)

response.value for CCc1c(C)nc(-n2nc(C)cc2NC(=O)C(CC)c2ccccc2)[nH]c1=O (stereo not given) (field: inhibition) = 12.6% (inactive)

Lab book: inhibition of Cn1c(COc2cccc3ccccc23)nc2ccccc21 noted as -3.53% (inactive)

---

# test: Mycobacterium tuberculosis growth inhibition, primary screen (AID 1259343)
# conditions_used: at 10 µM
Among all 6,200 compounds or so, about 2,900 (47%) were called active. No stated cut-off is given here; in the data, active means inhibition above about 50%; inactive means the rest. So high a share suggests a set chosen from earlier hits. This is one part of the list.
Bench note: report the call from label 1 = active, label 0 = inactive

compound	cat
CN=c1scc(-c2cc(Cl)ccc2Cl)n1N=Cc1ccc(O)cc1O	label 1
CC(=O)/C(=N/Nc1ccccc1[N+](=O)[O-])Oc1ccc(Br)cc1	label 0
CCc1c(C)nc2c(O)cccn2c1=O	label 1
C=CCN=c1scc(-c2ccco2)n1N=Cc1cc(OC)ccc1O	label 0
O=C(/C=C/c1ccc([N+](=O)[O-])s1)Nc1nnc(C2COc3ccccc3O2)o1 (stereo unspecified)	label 1

Turning to the following compound.
Could you kindly confirm the outcome this assay logged for CN=c1scc(-c2ccccc2Br)n1N=Cc1cccc(O)c1 ?
label 0

---

# test: Mycobacterium tuberculosis growth inhibition, primary screen (AID 1259343)
# conditions_used: at 10 µM
The campaign covered roughly 6,200 compounds. About 2,900 (47%) were called active. No stated cut-off is given here; in the data, active means inhibition above about 50%; inactive means the rest. The set was probably picked from earlier hits. Some of the results follow.
Choose one outcome from this list and give only that: Y = active, N = inactive

compound	cat
COc1ccc2c(c1OC)C(=O)OC2Nc1ccc(I)cc1 (centres undefined)	Y
Clc1ccc(CSc2nnc3nc[nH]n23)c(Cl)c1	Y
NC(=O)c1ccccc1OCc1csc(COc2ccc(F)cc2)n1	N
Oc1cc(-c2cccc3c2Sc2ccccc2S3)cc2c1OCCNC2	N
Cc1ccc(NC2OC(CO)C(O)C(O)C2O)cc1Br (centres undefined)	Y
Clc1ccc(Cn2ccnc2CNc2ccccc2)c(Cl)c1	N
CC(C)=CCCC(C)(O)c1cc(C(N)=O)no1 (centres undefined)	N
CCCNC(=O)c1ccc(Oc2ccc(F)cc2)cc1	Y
N#Cc1ccc(NC(=O)Cc2ccc(Cl)c(Cl)c2)cc1	N
COc1ccc(OCC(=O)Nc2cc(-c3cccs3)nn2-c2nc(C)cc(=O)[nH]2)cc1	Y

Please indicate how the test categorized COCC1CCCN(c2nncc(-c3ccc(Cl)cc3)n2)C1 (centres undefined) .
N

---

# test: Mycobacterium tuberculosis growth inhibition, primary screen (AID 1259343)
# conditions_used: at 10 µM, hits give high values
About 2,900 (47%) of roughly 6,200 compounds were called active. The set was probably picked from earlier hits. The list shows a part of the results.
outcome_measure: inhibition

Before answering, review these 5 worked examples.
compound	assay_value
CC(C)(C)c1ccc(Cn2cnc([N+](=O)[O-])n2)cc1	65.2% (active)
CCCCN(CCCC)CCCCSc1ccc(O)cc1	74.1% (active)
CCOC(=O)c1nnc2n(c1=O)CCN2c1ccc(OC)cc1	31.9% (inactive)
Cn1nc(C(F)(F)F)cc1-c1ccc(C(=O)O)s1	46.4% (inactive)
O=C(O)c1cnc(-c2ccc(C(F)(F)F)cc2)s1	60.4% (active)

Short answer for O=c1c2cnc(N3CCOCC3)nc2ccn1-c1ccc(Cl)c(Cl)c1 : inhibition was 12.3% (inactive)

Per the record, N#Cc1nc(NC(=O)c2ccc(N3CCCC3)c(F)c2)[nH]c1C#N has inhibition of 70.6% (active)

---

# test: Mycobacterium tuberculosis growth inhibition, primary screen (AID 1259343)
# conditions_used: at 10 µM, hits give high values
The campaign covered roughly 6,200 compounds. About 2,900 (47%) were called active. The set was probably picked from earlier hits. The list shows a part of the results.
Rule: Yes for inhibition not less than 30%, No for anything less.

Examples from the recorded data:
molecule	cat
S=c1[nH]nc(COc2ccc(Cl)cc2)o1	Yes
COC(=O)c1ccccc1NC(=O)c1cc(-c2cccs2)n(C2CCS(=O)(=O)C2)n1 (configuration not stated)	Yes
S=c1[nH]nc(COc2ccc(Cl)cc2Cl)o1	Yes
FC(F)(F)c1nc2n(n1)C(c1ccc(Cl)cc1)C1=C(N2)c2ccccc2SC1 (configuration not stated)	Yes
S=c1[nH]nc(COc2ccccc2Cl)o1	No
COc1cccc(OCc2n[nH]c(=S)o2)c1	Yes
CC(Oc1ccc(F)cc1)c1n[nH]c(=S)o1 (configuration not stated)	No
Cc1ccc(C)c(OCc2n[nH]c(=S)o2)c1	No

Please check the record Fc1ccc(C2=CC(c3ccc4c(c3)OCO4)n3nc(C(F)(F)F)nc3N2)cc1 (configuration not stated) and state if its inhibition is at or above 30%.
Yes

# bool: inhibition of Cc1cc(C)n(C(C)CNS(=O)(=O)c2ccc(C)c(C)c2)n1 (configuration not stated) >= 30%
No

Evaluate Fc1ccc(C2C=C(c3ccccc3)Nc3nc(C(F)(F)F)nn32)cc1F (configuration not stated) : inhibition at minimum 30%?
No
